Below, each of the molecules is paired with its reported activation value.
System: DAF-12 nuclear receptor (Haemonchus contortus)
ASSAY_METHOD_TEXT: hcDAF-12 driven luciferase reporter activation – cell-based, luminescence, HEK293, lit1-tk-luc reporter, primary screen (AID 652067);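 note: 100% = response to 3 µM Δ7-dafachronic acid high control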
MEASUREMENT_PARAMETERS: HEK293 hcDAF-12 lit1-tk-luc reporter, at 6.8 µM, hits give high values, 0% DMSO, 100% Δ7-dafachronic acid
Among all 370,000 compounds or so, about 5,400 (1.5%) were called active. Shown is part of a subset that was picked to be rich in actives.
Number in %, nothing else.

Consider the reported activation for these molecules:
# input molecule: CN(CC(=O)Nc1cccc(F)c1)C(=O)C1CC(=O)N(CCc2ccccc2)C1 (stereo not drawn) ; wanted: its activation
6.61

For the molecule shown here, Cc1nc2ccc(S(=O)(=O)NCC(=O)O)cc2s1 , give the reported activation.
-0.41

If you can, please state the reported activation value of O=C(CN1CCC(NC(=O)NCc2ccccc2)CC1)Nc1ccc2c(c1)OCCO2 .
-0.83

Item CN(Cc1ccccc1Cl)C(=O)C1CCC(=O)N(CCc2cccc(F)c2)C1 (stereo not drawn) has what recorded activation?
-0.75

# lookup: activation of O=C(O)c1c(NC(=O)N2CCCC2)sc2c1CCCC2
-0.22

***
activation for CCN(CC)CC(=O)Nc1sc2c(c1C(=O)c1ccccc1C)CCC2 ?
-0.3

# get_value(readout='activation', item= O=C(NC(Cc1ccccc1)C(=O)O)/C(=C\c1ccccc1)NC(=O)c1ccco1 (stereo not drawn) )
-0.54

Sample CCCCc1nc2ccccc2c(NC(=O)CN2CCN(C)CC2)c1CCC — what was its activation?
0.46

Recorded activation for O=C(Nc1ccc(F)cc1)c1cc2c(s1)CCCC2 , please?
3.72

Looking for the measured activation of CCc1ccccc1NC(=O)c1ccc2c(c1)CCN2S(C)(=O)=O , can you help?
-0.87

Return reported activation; argument: CCOC(=O)c1cn[nH]c1NC(=S)Nc1ccccc1
7.58

Suppose we examine the molecule COC(=O)c1cc(N2CCNCC2)nc2ccccc12 ; what activation value has been reported?
0.41

Quick one: activation of COc1cc(NC(=O)CN(C)S(=O)(=O)c2ccc3nc(C)sc3c2)cc(OC)c1 ?
-1.14

Can you share its activation? I mean this molecule: COc1ccc(C(=O)OCCN(C)C2CN(Cc3cn(Cc4cccc(C)c4)nn3)S(=O)(=O)C2)cc1OC (stereo not drawn)
-2.89

----------
Test system: DAF-12 nuclear receptor (Haemonchus contortus)
ASSAY_METHOD_TEXT: hcDAF-12 driven luciferase reporter activation – cell-based, luminescence, HEK293, lit1-tk-luc reporter, primary screen (AID 652067);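 note: 100% = response to 3 µM Δ7-dafachronic acid high control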
MEASUREMENT_PARAMETERS: HEK293 hcDAF-12 lit1-tk-luc reporter, at 6.8 µM, hits give high values, 0% DMSO, 100% Δ7-dafachronic acid
The campaign covered roughly 370,000 compounds. About 5,400 (1.5%) were called active. The full list was thinned out, with actives kept by preference.
Each entry below lists one item and its recorded activation value.
Output spec: scalar in %, unitless text.

Fill in the blank: the reported activation of COCc1[nH]nc2c1C(c1ccccc1)N(c1ccccc1)C2=O (stereo unspecified) is ____.
-0.15

Others:
Value lookup for activation; key = Cc1ccc(-c2nnc(SCC(=O)Nc3ccc(Oc4ccccc4)cc3)n2Cc2ccco2)cc1
-2.76

Fill in: activation of COc1cccc(-c2nc(CS(=O)(=O)CC(=O)NCCc3ccc(OC)c(OC)c3)c(C)o2)c1 is ___
-1.4

Which value of activation has been reported for CCOC(=O)c1cc2n(c1N)-c1ccccc1C2=O in the records?
6.53

Give the measured activation of Fc1ccc2nc(COCc3nc4ccc(F)cc4[nH]3)[nH]c2c1 .
-1.16

Endpoint output: activation of Cc1ccc(NC(=O)CN2CCc3ccccc3C2)cc1C . Value?
-0.52

GET /values?readout=activation&item= Cc1c[nH]c2cccc(-c3ccc(Cl)cc3)c12
2.81

I am curious: what activation value has been reported for COC(=O)c1c(-c2ccc(OC)cc2)c2c(c3c4ccccc4n(S(=O)(=O)c4ccc(C)cc4)c13)C(=O)N(C)C2 ?
1.29

Item under review: CCOc1ccc(N(CC(=O)Nc2c(C)n(C)n(-c3ccccc3)c2=O)S(=O)(=O)c2ccc(Cl)s2)cc1 . Reported activation?
-1

Entry Nc1nc(Nc2ccccc2F)nc(NC2CCCCC2)c1[N+](=O)[O-] has what activation?
-1.49

Look at this compound and give its reported activation. COc1cccc(NC(=O)N(C)C[C@@H]2OCc3cn(nn3)CCCC(=O)N([C@@H](C)CO)C[C@H]2C)c1
1.21

Param item = O=C(c1c(Cl)cccc1Cl)N1CCN(c2cccc3[nH]ccc23)CC1 ; retrieve measured activation.
-0.37

Return reported activation; argument: O=C(NC1CCC1)c1ccc(C#Cc2cccc(F)c2)c[n+]1[O-]
1.33

Please look up its activation: COc1ccc(CSc2nnc(SCC(=O)Nc3ccccc3C(F)(F)F)s2)cc1
-0.61

Please give the measured activation for this compound: CCOC(=O)c1ccccc1NC(=O)c1c(N)n(C)c(=O)[nH]c1=O
-0.79

Entry CCOC(=O)c1cnn(Cc2ccccc2Cl)c1N has what activation?
1.1

If you can, please state the reported activation value of O=C(NCc1ccccc1)[C@H]1CCCN1C(=O)[C@@H]1CCCN1C(=O)c1ccc(Cl)cc1Cl .
-1.62

Which activation value is on record for Nc1ncnc2c1ncn2C1OC(CO)CC1O (stereo unspecified) ?
-1.72

Endpoint output: activation of Cc1nc2ccc(NC(=O)C(F)(F)F)cc2o1 . Value?
0.11

Please give the measured activation for this compound: CCN(CC)C(=O)CC[C@@H]1CC[C@]2(CCCN(S(=O)(=O)C3CCCCC3)C2)O1
-3.16

What value of measured activation is listed for c1ccc(-c2cc(-c3ccccc3)[nH]n2)cc1 ?
11.7

Given the compound Cc1cccc(NC(=S)NC(=O)c2ccc(Br)o2)c1 , what is its reported activation?
6.48

Record request: activation value, item CC(=O)Oc1ccc2c(=O)oc(-c3ccc([N+](=O)[O-])cc3)nc2c1
-2.73
